Parameter IC50, tested on DNA topoisomerase 2-alpha (Homo sapiens, UniProt P11388), listed per item.
Sequence (P11388 whole entry): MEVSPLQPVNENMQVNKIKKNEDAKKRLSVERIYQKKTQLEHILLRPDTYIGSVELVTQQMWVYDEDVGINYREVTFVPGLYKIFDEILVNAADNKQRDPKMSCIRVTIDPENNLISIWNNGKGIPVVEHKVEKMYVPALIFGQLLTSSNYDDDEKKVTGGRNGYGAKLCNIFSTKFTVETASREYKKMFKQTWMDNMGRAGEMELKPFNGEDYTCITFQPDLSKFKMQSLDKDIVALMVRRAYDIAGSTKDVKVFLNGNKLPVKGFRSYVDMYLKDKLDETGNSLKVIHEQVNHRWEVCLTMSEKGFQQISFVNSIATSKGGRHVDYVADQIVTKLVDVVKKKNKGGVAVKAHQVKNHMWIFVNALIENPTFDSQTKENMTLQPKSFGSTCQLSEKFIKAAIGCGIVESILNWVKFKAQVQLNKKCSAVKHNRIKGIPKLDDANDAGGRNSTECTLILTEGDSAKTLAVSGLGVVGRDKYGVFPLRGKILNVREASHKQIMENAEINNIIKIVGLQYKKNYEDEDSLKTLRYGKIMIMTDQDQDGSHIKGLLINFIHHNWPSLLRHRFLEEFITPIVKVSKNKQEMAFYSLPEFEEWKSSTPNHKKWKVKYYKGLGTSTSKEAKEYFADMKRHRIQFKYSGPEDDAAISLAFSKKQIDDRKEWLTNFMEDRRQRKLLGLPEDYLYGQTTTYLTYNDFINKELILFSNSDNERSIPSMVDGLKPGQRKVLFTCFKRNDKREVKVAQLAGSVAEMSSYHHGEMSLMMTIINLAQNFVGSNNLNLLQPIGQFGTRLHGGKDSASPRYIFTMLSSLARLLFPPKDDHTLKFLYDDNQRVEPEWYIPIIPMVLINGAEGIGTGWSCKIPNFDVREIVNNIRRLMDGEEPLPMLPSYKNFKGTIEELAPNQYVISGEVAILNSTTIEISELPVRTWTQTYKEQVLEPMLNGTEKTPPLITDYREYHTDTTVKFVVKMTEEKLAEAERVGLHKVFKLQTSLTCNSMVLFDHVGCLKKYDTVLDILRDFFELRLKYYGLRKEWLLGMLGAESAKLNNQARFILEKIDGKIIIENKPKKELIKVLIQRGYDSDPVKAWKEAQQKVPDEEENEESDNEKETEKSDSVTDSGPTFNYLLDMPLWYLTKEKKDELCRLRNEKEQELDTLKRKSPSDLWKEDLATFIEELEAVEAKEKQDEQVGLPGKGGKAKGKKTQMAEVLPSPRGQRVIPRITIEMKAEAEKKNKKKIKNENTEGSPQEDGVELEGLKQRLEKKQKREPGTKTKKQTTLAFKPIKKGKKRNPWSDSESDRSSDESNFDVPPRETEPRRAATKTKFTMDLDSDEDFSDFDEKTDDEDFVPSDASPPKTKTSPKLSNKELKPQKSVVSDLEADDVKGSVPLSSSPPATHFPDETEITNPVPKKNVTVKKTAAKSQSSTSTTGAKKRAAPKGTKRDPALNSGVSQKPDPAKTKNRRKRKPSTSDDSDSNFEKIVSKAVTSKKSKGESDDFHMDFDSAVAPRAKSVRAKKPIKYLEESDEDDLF
Endpoint: IC50

{"Smiles Data": "O=C(O)Cc1ccc(NC(=O)CNC(=O)CCCCCC(=O)Oc2c(-c3ccc(O)c(O)c3)oc3cc(O)cc(O)c3c2=O)cc1", "Endpoint": "IC50", "Value": "> 200 µM"}
{"Smiles Data": "O=C(CCCCCC(=O)Oc1c(-c2ccc(O)c(O)c2)oc2cc(O)cc(O)c2c1=O)NCC(=O)Nc1ccc(O)c(CO)c1", "Endpoint": "IC50", "Value": "78.9 µM"}
{"Smiles Data": "COC(=O)CCCCCCCCC(=O)Oc1c(-c2ccc(O)c(O)c2)oc2cc(O)cc(O)c2c1=O", "Endpoint": "IC50", "Value": "> 200 µM"}

* * *

Tested on: Escherichia coli
Protocol Summary: Inhibition of cleavage activity of Escherichia coli DNA gyrase using relaxed pBR322 as substrate at 200 uM after 10 mins by agarose gel electrophoresis analysis relative to control
Endpoint: fold change (FC)

{"Smiles Data": "O=C(CCCCCC(=O)Oc1c(-c2ccc(O)c(O)c2)oc2cc(O)cc(O)c2c1=O)NCC(=O)Nc1ccc(CO)cc1", "Value": 3}
{"Smiles Data": "O=C(CCCCCC(=O)Oc1c(-c2ccc(O)c(O)c2)oc2cc(O)cc(O)c2c1=O)NCC(=O)Nc1ccccc1", "Value": 7.8}
{"Smiles Data": "COC(=O)CCCCCCCCC(=O)Oc1c(-c2ccc(O)c(O)c2)oc2cc(O)cc(O)c2c1=O", "Value": "< 1"}
{"Smiles Data": "O=C(CCCCCC(=O)Oc1c(-c2ccc(O)c(O)c2)oc2cc(O)cc(O)c2c1=O)NCC(=O)Nc1ccc(O)cc1", "Value": 5}

* * *

Organism: Bos taurus
Protocol Summary: Inhibition of supercoiling activity of calf thymus topoisomerase 1 using […] as substrate after 15 mins by ethidium bromide staining
Active and inactive are the calls of the source. The rule behind the calls is not given here.
Possible outcomes: active, inactive

{"Smiles Data": "O=C(CCCCCC(=O)Oc1c(-c2ccc(O)c(O)c2)oc2cc(O)cc(O)c2c1=O)NCC(=O)Nc1ccc(O)cc1", "Group": "active"}
{"Smiles Data": "O=C(O)Cc1ccc(NC(=O)CNC(=O)CCCCCC(=O)Oc2c(-c3ccc(O)c(O)c3)oc3cc(O)cc(O)c3c2=O)cc1", "Group": "inactive"}
{"Smiles Data": "COC(=O)CCCCCCCCC(=O)Oc1c(-c2ccc(O)c(O)c2)oc2cc(O)cc(O)c2c1=O", "Group": "inactive"}
{"Smiles Data": "O=C(CCCCCC(=O)Oc1c(-c2ccc(O)c(O)c2)oc2cc(O)cc(O)c2c1=O)NCC(=O)Nc1ccccc1", "Group": "active"}
{"Smiles Data": "O=C(CCCCCC(=O)Oc1c(-c2ccc(O)c(O)c2)oc2cc(O)cc(O)c2c1=O)NCC(=O)Nc1ccc(O)c(CO)c1", "Group": "inactive"}
{"Smiles Data": "O=c1c(O)c(-c2ccc(O)c(O)c2)oc2cc(O)cc(O)c12", "Group": "active"}
{"Smiles Data": "O=C(CCCCCC(=O)Oc1c(-c2ccc(O)c(O)c2)oc2cc(O)cc(O)c2c1=O)NCC(=O)Nc1ccc(CO)cc1", "Group": "inactive"}

* * *

# maps each entry to its fold change (FC)
Tested System: DNA topoisomerase 2-alpha (Homo sapiens)
Protocol Summary: Inhibition of cleavage activity of human topoisomerase 2 using relaxed pBR322 as substrate at 200 uM after 10 mins by agarose gel electrophoresis analysis relative to control
Endpoint: fold change (FC)

{"Smiles Data": "O=C(CCCCCC(=O)Oc1c(-c2ccc(O)c(O)c2)oc2cc(O)cc(O)c2c1=O)NCC(=O)Nc1ccc(O)c(CO)c1", "Relation": "<", "Value": 1}
{"Smiles Data": "O=C(CCCCCC(=O)Oc1c(-c2ccc(O)c(O)c2)oc2cc(O)cc(O)c2c1=O)NCC(=O)Nc1ccc(O)cc1", "Relation": "=", "Value": 2.4}
{"Smiles Data": "O=C(CCCCCC(=O)Oc1c(-c2ccc(O)c(O)c2)oc2cc(O)cc(O)c2c1=O)NCC(=O)Nc1ccc(CO)cc1", "Relation": "=", "Value": 2.1}
{"Smiles Data": "COC(=O)CCCCCCCCC(=O)Oc1c(-c2ccc(O)c(O)c2)oc2cc(O)cc(O)c2c1=O", "Relation": "<", "Value": 1}
{"Smiles Data": "O=C(O)Cc1ccc(NC(=O)CNC(=O)CCCCCC(=O)Oc2c(-c3ccc(O)c(O)c3)oc3cc(O)cc(O)c3c2=O)cc1", "Relation": "<", "Value": 1}
{"Smiles Data": "O=C(CCCCCC(=O)Oc1c(-c2ccc(O)c(O)c2)oc2cc(O)cc(O)c2c1=O)NCC(=O)Nc1ccccc1", "Relation": "=", "Value": 2.7}
